Item-by-item account of melting point

INSERT INTO measurements (compound, quantity_kind, reported_result) VALUES
  ('CCCCc1ncc(/C=C(\Cc2cccs2)C(=O)O)n1Cc1ccc(C#N)cc1', 'melting point', '190 to 192 °C'),
  ('CC(C)(C)C(=O)OCn1nnc(-c2cc(Br)ccc2NC(=O)c2cccc(S(=O)(=O)N3CCOCC3)c2)n1', 'melting point', '210 to 212 °C'),
  ('N#Cc1nc2ccc(Oc3ccc(C(F)(F)F)cc3Cl)cc2[nH]1', 'melting point', '192 °C'),
  ('COC(=O)CC/C(C)=C/Cc1c(O)c2c(c(C)c1OC)COC2=O', 'melting point', '104 to 105 °C'),
  ('COc1ccc2c(c1OC(C)=O)NC(O)C1CCCN1C2=O (centres undefined)', 'melting point', '144 to 146 °C'),
  ('CCCCc1ccc(OC)c(-c2csc(NC(=O)c3ccc(C(=O)N4CCC(N5CCC[C@H]5CO)CC4)cc3)n2)c1', 'melting point', '199 °C'),
  ('CCN(Cc1ccccc1)C(=O)Cc1c(-c2ccc(C)cc2)nc2cc(C)ccn12', 'melting point', '220 to 222 °C'),
  ('CC(Cl)(Cl)C(NC(=O)c1cc(Cl)cc(Cl)c1)NC(=NS(=O)(=O)C(F)(F)F)Nc1cccnc1 (centres undefined)', 'melting point', '213 to 215 °C'),
  ('CCN=C(N)N(CC)N=C(C=Cc1ccc(OC(F)F)cc1)C=Cc1ccc(OC(F)F)cc1', 'melting point', '97 to 99 °C'),
  ('CC(=Cc1ccc(C(=O)O)cc1)c1ccc2c(c1)SCCC2(C)C', 'melting point', '255 to 257 °C');

Ask: Record request: melting point value, item CCCCOC(=O)c1cccc(CCN(C)CCCC(C#N)(c2ccc(OC)c(OC)c2)C(C)C)c1 (centres undefined)
Reply: 97 to 103 °C

Ask: Record request: melting point value, item CS(=O)(=O)Nc1cc2c(c(C(=O)O)c1)NCCC2
Reply: 244 °C

Ask: Record request: melting point value, item CNC(=O)NC(CCSC)C(N)=O (racemic)
Reply: 156 to 157 °C

Ask: Record request: melting point value, item Cn1nc(N)cc1COCc1ccccc1
Reply: 214 °C

Ask: Record request: melting point value, item COC(=O)/C=C/c1ccc(N(C)C(C)=O)nc1
Reply: 94.3 °C

Ask: Record request: melting point value, item CCCCOc1c(CNC(=O)OC(C)(C)C)n(CC2CC2)c(=O)c2ccc(O)cc12
Reply: 164 to 166 °C
